# APPLIED_CONDITIONS: a range is the spread between reports
MEASURE_NAME: melting point

As a guide, the following entries are already answered.
INSERT INTO results (compound, value_reported) VALUES
  ('CC[N+](=O)[O-]', '-89.5 to -89 °C'),
  ('NC(=O)c1ccc(N)nc1', '246 to 247 °C'),
  ('Cc1nc(-c2ccc(-c3nc(C)c(-c4ccccc4)o3)cc2)oc1-c1ccccc1', '232 to 234 °C'),
  ('COc1ccc(CC(=O)O)cc1OC', '97 to 98 °C'),
  ('BrCC(Br)c1ccccc1 (stereo unspecified)', '72 to 75 °C'),
  ('O=C1OC2(OC=C(c3ccccc3)C2=O)c2ccccc21 (stereo unspecified)', '154 to 157 °C'),
  ('CCOC(=O)NCCOc1ccc(Oc2ccccc2)cc1', '53 to 53.5 °C'),
  ('Cc1c(O)cccc1O', '118 to 120 °C'),
  ('CC(C)(C)c1cccc(C(C)(C)C)n1', '2 to 2.2 °C'),
  ('O=C(O)CCCCCc1ccccc1', '18 to 23 °C');

Recorded melting point of `CC(C)c1ccc(C(=O)O)cc1` , please.
118 to 119 °C

Entry to check: `C=CCCCCCCC`
-83.2 to -81 °C

Do the same for `C=C(C)C` please
-140 °C

What about this compound? `O=Cc1ccc(O)c([N+](=O)[O-])c1`
141 to 142 °C

Next compound up: `CN1CC=C(c2ccccc2)CC1`
38.5 to 40 °C
